# experimental system: human PRS protein (Homo sapiens)
# Construct: to construct His-Avi-hEPRS (998-1512) expression plasmid; His tag (N); Avi tag (N); TEV cleavage site (ENLYFQ/GS, encoded by forward primer hEPRS-TEV-NheF) (N); made in house; host or cells: E. coli BL21(DE3)
# protocol description: PRS inhibitory activity (ATP/[32P]pyrophosphate exchange enzyme reaction)
# Type: biochemical
# protocol conditions: 300 nM test compound; recombinant human PRS (EPRS 998-1512); read-out: inhibitory rate (%) of PRS
observation type: inhibition at 0.3 µM (%)

COCCCn1cc(-c2cccc(CC(=O)Nc3cc(N4CC[C@@](C#N)(C5CC5)C4=O)ccn3)c2)cn1: 98
Cn1cc(-c2cccc(CC(=O)Nc3cc(N4CC[C@@](C#N)(C5CC5)C4=O)ccn3)c2)nn1: 99
CC(C)(O)CCn1cc(-c2cccc(CC(=O)Nc3cc(N4CC[C@@](C#N)(C5CC5)C4=O)ccn3)c2)cn1: 101
N#C[C@@]1(C2CC2)CCN(c2ccnc(NC(=O)Cc3cccc(-c4cnn(CC5COCCO5)c4)c3)c2)C1=O (stereo partly shown): 99
CC(C)n1cc(-c2cccc(CC(=O)Nc3cc(N4CC[C@@](C#N)(C5CC5)C4=O)ccn3)c2)cn1: 100
Cc1cc(N2CC[C@@](C#N)(C3CC3)C2=O)nc(NC(=O)Cc2ccccc2)n1: 89
N#C[C@@]1(C2CC2)CCN(c2ccnc(NC(=O)Cc3cccc(-c4cnn(CC5CCOCC5)c4)c3)c2)C1=O: 97

* * *

# experimental system: human PRS protein (Homo sapiens)
# Construct: to construct His-Avi-hEPRS (998-1512) expression plasmid; His tag (N); Avi tag (N); TEV cleavage site (ENLYFQ/GS, encoded by forward primer hEPRS-TEV-NheF) (N); made in house; host or cells: E. coli BL21(DE3)
# Sequence (P07814 998-1512): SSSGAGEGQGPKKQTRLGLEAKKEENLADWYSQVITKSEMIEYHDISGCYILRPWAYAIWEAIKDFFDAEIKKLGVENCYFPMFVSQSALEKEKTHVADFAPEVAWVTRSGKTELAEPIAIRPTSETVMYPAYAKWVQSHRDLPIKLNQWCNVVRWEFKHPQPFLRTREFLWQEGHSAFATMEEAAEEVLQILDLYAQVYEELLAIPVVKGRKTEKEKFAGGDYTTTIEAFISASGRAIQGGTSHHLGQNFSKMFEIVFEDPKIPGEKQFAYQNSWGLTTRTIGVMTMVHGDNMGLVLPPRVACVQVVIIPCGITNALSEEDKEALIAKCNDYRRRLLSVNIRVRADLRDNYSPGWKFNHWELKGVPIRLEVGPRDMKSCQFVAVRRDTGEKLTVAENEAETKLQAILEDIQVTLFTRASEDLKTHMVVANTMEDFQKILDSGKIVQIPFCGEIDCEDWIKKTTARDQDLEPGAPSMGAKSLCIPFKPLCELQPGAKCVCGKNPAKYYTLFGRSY
# protocol description: PRS inhibitory activity (ATP/[32P]pyrophosphate exchange enzyme reaction)
# Type: biochemical
# protocol conditions: 300 nM test compound; recombinant human PRS (EPRS 998-1512); read-out: inhibitory rate (%) of PRS
observation type: inhibition at 0.3 µM (%)

N#C[C@@]1(C2CC2)CCN(c2ccnc(NC(=O)Cc3cccc(-c4cnn(CC5CCCC5)c4)c3)c2)C1=O [Example 75]: 97
COc1cc(N2CC[C@@](C#N)(C3CC3)C2=O)cc(NC(=O)Cc2cccc(-c3cnn(C)c3)c2)n1 [Example 62]: 92
Cn1cc(-c2cc(F)cc(CC(=O)Nc3cc(N4CC[C@@](C#N)(C5CC5)C4=O)ccn3)c2)cn1 [Example 35]: 102
Cn1cc(-c2cccc(CC(=O)Nc3cc(N4CC[C@@](C#N)(C5CC5)C4=O)ccn3)c2)ccc1=O [Example 41]: 101
COCCOCCn1cc(-c2cccc(CC(=O)Nc3cc(N4CC[C@@](C#N)(C5CC5)C4=O)ccn3)c2)cn1 [Example 86]: 96
CCc1cc(N2CC[C@@](C#N)(C3CC3)C2=O)cc(NC(=O)Cc2cc(F)cc(-c3cnn(C)c3)c2)n1 [Example 99]: 99
N#C[C@@]1(C2CC2)CCN(c2ccnc(NC(=O)Cc3cccc(Cl)c3)c2)C1=O [Example 1]: 84
N#C[C@@]1(C2CC2)CCN(c2ccnc(NC(=O)Cc3cccc(-c4cnn(C5CCOC5)c4)c3)c2)C1=O (stereo partly drawn) [Example 94]: 100
Cc1cc(N2CC(C)C(C#N)(C3CC3)C2=O)cc(NC(=O)Cc2ccccc2)n1 (stereo not drawn) [Example 54]: 77
N#C[C@@]1(C2CC2)CCN(c2ccnc(NC(=O)Cc3ccccc3F)c2)C1=O [Example 14]: 70
N#C[C@@]1(C2CC2)CCN(c2ccnc(NC(=O)Cc3cccc(-c4cnn(CCCC(F)(F)F)c4)c3)c2)C1=O [Example 90]: 98
Cc1cc(N2CC[C@@](C#N)(C3CC3)C2=O)cc(NC(=O)Cc2cccc(-c3cnn(C)c3)c2)n1 [Example 30]: 99
N#C[C@@]1(C2CC2)CCN(c2ccnc(NC(=O)Cc3cccc4ccccc34)n2)C1=O [Example 128]: 95
N#C[C@@]1(C2CC2)CCN(c2ccnc(NC(=O)Cc3cccc(-c4cnn(C5CC5)c4)c3)c2)C1=O [Example 42]: 100
N#C[C@@]1(C2CC2)CCN(c2ccnc(NC(=O)Cc3cccc(-c4cnn(CC(N)=O)c4)c3)c2)C1=O [Example 69]: 99
N#C[C@@]1(C2CC2)CCN(c2ccnc(NC(=O)Cc3cccc(-c4cnn(CC5CCCO5)c4)c3)c2)C1=O (stereo partly drawn) [Example 76]: 98
Cn1cc(-c2cccc(CC(=O)Nc3cc(N4CCC(C)(C)C4=O)ccn3)c2)cn1 [Example 43]: 88
C=CC[C@]1(C#N)CCN(c2ccnc(NC(=O)Cc3cccc(-c4cnn(C)c4)c3)c2)C1=O [Example 22]: 87
CC(C)(C)OC(=O)n1cc(-c2cccc(CC(=O)Nc3cc(N4CC[C@@](C#N)(C5CC5)C4=O)ccn3)c2)cn1 [Example 55]: 99
N#C[C@@]1(C2CC2)CCN(c2ccnc(NC(=O)Cc3cccc(-c4ccccc4)c3)c2)C1=O [Example 9]: 94
N#C[C@@]1(C2CC2)CCN(c2ccnc(NC(=O)Cc3cccc(-c4cnn(CC5CC(F)(F)C5)c4)c3)c2)C1=O [Example 87]: 100
N#C[C@@]1(C2CC2)CCN(c2ccnc(NC(=O)Cc3cccc(F)c3)c2)C1=O [Example 13]: 89
N#C[C@@]1(C2CC2)CCN(c2ccnc(NC(=O)Cc3cccc(-c4ccncc4)c3)c2)C1=O [Example 29]: 97
N#C[C@@]1(C2CC2)CCN(c2ccnc(NC(=O)Cc3cccc(Br)c3)c2)C1=O [Example 21]: 89
Cc1cc(-c2cccc(CC(=O)Nc3cc(N4CC[C@@](C#N)(C5CC5)C4=O)cc(C)n3)c2)cnn1 [Example 103]: 97
N#C[C@@]1(C2CC2)CCN(c2ccnc(NC(=O)Cc3ccc(Cl)s3)c2)C1=O [Example 17]: 83
N#C[C@@]1(C2CC2)CCN(c2ccnc(NC(=O)Cc3cccc(-c4cnsc4)c3)c2)C1=O [Example 50]: 99
Cc1cc(N2CC[C@@](C#N)(C3CC3)C2=O)cc(NC(=O)Cc2cccc3ccccc23)n1 [Example 27]: 97
N#C[C@@]1(C2CC2)CCN(c2ccnc(NC(=O)Cc3ccc(Cl)s3)n2)C1=O [Example 130]: 84
Cc1cc(N2CCC(C)(C)C2=O)cc(NC(=O)Cc2cccc(-c3cnn(C)c3)c2)n1 [Example 49]: 83

* * *

# experimental system: human PRS protein (Homo sapiens)
# Construct: to construct His-Avi-hEPRS (998-1512) expression plasmid; His tag (N); Avi tag (N); TEV cleavage site (ENLYFQ/GS, encoded by forward primer hEPRS-TEV-NheF) (N); made in house; host or cells: E. coli BL21(DE3)
# protocol description: PRS inhibitory activity (ATP/[32P]pyrophosphate exchange enzyme reaction)
# Assay type: biochemical
# protocol conditions: 300 nM test compound; recombinant human PRS (EPRS 998-1512); read-out: inhibitory rate (%) of PRS
observation type: inhibition at 0.3 µM (%)

// solved cases for inhibition at 0.3 µM follow
N#C[C@@]1(C2CC2)CCN(c2ccnc(NC(=O)Cc3cccc(-c4cnn(CCn5cccn5)c4)c3)c2)C1=O: 98
N#C[C@@]1(C2CC2)CCN(c2ccnc(NC(=O)Cc3cccc(-c4cnn(C(F)F)c4)c3)c2)C1=O: 100
N#C[C@@]1(C2CC2)CCN(c2ccnc(NC(=O)Cc3cccc(-c4cnn(CC5CCCCC5)c4)c3)c2)C1=O: 92
N#C[C@@]1(C2CC2)CCN(c2ccnc(NC(=O)Cc3cccc(-c4cnn(CC(F)(F)F)c4)c3)c2)C1=O: 99
Cc1cc(-c2cccc(CC(=O)Nc3cc(N4CC[C@@](C#N)(C5CC5)C4=O)ccn3)c2)sn1: 100

[I] N#C[C@@]1(C2CC2)CCN(c2ccnc(NC(=O)Cc3cccc(-c4cnn(Cc5ccccc5)c4)c3)c2)C1=O
[II] N#C[C@@]1(C2CC2)CCN(c2cc(NC(=O)Cc3ccccc3)ncn2)C1=O
Q: Short answer wanted: higher inhibition at 0.3 µM, I or II ? I would appreciate it if you answered with the label of your choice.
A: I
(I: 100%, II: 65%)
